# System: Rattus norvegicus
# assayInfo: Ex vivo inhibition of 11beta-HSD1 in Sprague-Dawley rat assessed as inhibition of conversion of [3H]cortisone to [3H]cortisol at 4 mg/kg, po
# Type: functional
recordedMetric: inhibition in vivo at 4 mg/kg (%)
Expressed in %, but write only the number.

(Q) Reported inhibition in vivo at 4 mg/kg for `C[C@](O)(c1ccc(C(=O)N(C2CC2)[C@H]2CC[C@](COC(N)=O)(c3ccccc3F)CC2)cc1)C(F)(F)F` : what is it?
(A) 27

(Q) Reported inhibition in vivo at 4 mg/kg for `C[C@](O)(c1ccc(C(=O)N(C2CC2)[C@H]2CC[C@](COC(N)=O)(c3ccccn3)CC2)cc1)C(F)(F)F` : what is it?
(A) 14

(Q) Reported inhibition in vivo at 4 mg/kg for `C[C@](O)(c1ccc(C(=O)N(C2CC2)[C@H]2CC[C@](COC(N)=O)(c3ccccc3)CC2)cc1)C(F)(F)F` : what is it?
(A) 23

(Q) Reported inhibition in vivo at 4 mg/kg for `C[C@](O)(c1ccc(C(=O)N(C2CC2)[C@H]2CC[C@](COC(N)=O)(c3cscn3)CC2)cc1)C(F)(F)F` : what is it?
(A) 6

---

Record form. Attribute: half-life. Fill in for each entry.
# assayInfo: Half life in rat at 0.5 mg/kg, iv
# Assay type: ADME, organism-based
# Parameters: dose 0.5 mg/kg, route intravenous
# testParameters: in vivo
Expressed in h, but write only the number.

(Q) Reported half-life for `C[C@](O)(c1ccc(C(=O)N(C2CC2)[C@H]2CC[C@](COC(N)=O)(c3cscn3)CC2)cc1)C(F)(F)F` : what is it?
(A) 4.5

(Q) Reported half-life for `C[C@](O)(c1ccc(C(=O)N(C2CC2)[C@H]2CC[C@](COC(N)=O)(c3ccccn3)CC2)cc1)C(F)(F)F` : what is it?
(A) 4.2

(Q) Reported half-life for `C[C@](O)(c1ccc(C(=O)N(C2CC2)[C@H]2CC[C@](COC(N)=O)(c3ccccc3)CC2)cc1)C(F)(F)F` : what is it?
(A) 3.9

(Q) Reported half-life for `C[C@](O)(c1ccc(C(=O)N(C2CC2)[C@H]2CC[C@](COC(N)=O)(c3ccccc3F)CC2)cc1)C(F)(F)F` : what is it?
(A) 5.2

---

# assayInfo: Clearance in rat at 0.5 mg/kg, iv and 2 mg/kg, po
# Type: ADME, organism-based
# testParameters: in vivo
recordedMetric: clearance (L/h/kg)
Expressed in L/h/kg, but write only the number.

(Q) Reported clearance for `C[C@](O)(c1ccc(C(=O)N(C2CC2)[C@H]2CC[C@](COC(N)=O)(c3cscn3)CC2)cc1)C(F)(F)F` : what is it?
(A) 0.82

(Q) Reported clearance for `C[C@](O)(c1ccc(C(=O)N(C2CC2)[C@H]2CC[C@](COC(N)=O)(c3ccccc3F)CC2)cc1)C(F)(F)F` : what is it?
(A) 0.15

(Q) Reported clearance for `C[C@](O)(c1ccc(C(=O)N(C2CC2)[C@H]2CC[C@](COC(N)=O)(c3ccccc3)CC2)cc1)C(F)(F)F` : what is it?
(A) 0.16

(Q) Reported clearance for `C[C@](O)(c1ccc(C(=O)N(C2CC2)[C@H]2CC[C@](COC(N)=O)(c3ccccn3)CC2)cc1)C(F)(F)F` : what is it?
(A) 0.21
